Reference for the values: patent US20150064252A1

- ASSAY_EXPLANATION: Pharmacokinetics of Compound I after single and multiple oral doses of solid dispersion tablets
- Format: in vivo, human
- EXPERIMENTAL_CONDITIONS: human, in vivo, po, median Tmax (time of maximum plasma concentrations)
QUANTITY_MEASURED: Tmax

What value of Tmax has been recorded for this entry: COC[C@H]1C[C@@H](c2ncc(-c3ccc4c(c3)COc3cc5c(ccc6nc([C@@H]7CC[C@H](C)N7C(=O)[C@@H](NC(=O)OC)C(C)C)[nH]c65)cc3-4)[nH]2)N(C(=O)[C@H](NC(=O)OC)c2ccccc2)C1
1.5 to 3.25 h

* * *

- ASSAY_EXPLANATION: Pharmacokinetics of Compound I after single and multiple oral doses of solid dispersion tablets
- Type: in vivo, human
- EXPERIMENTAL_CONDITIONS: human, in vivo, 50 mg
QUANTITY_MEASURED: AUC(0-t)
For clarity, give the value followed by its unit.

What measured AUC(0-t) goes with COC[C@H]1C[C@@H](c2ncc(-c3ccc4c(c3)COc3cc5c(ccc6nc([C@@H]7CC[C@H](C)N7C(=O)[C@@H](NC(=O)OC)C(C)C)[nH]c65)cc3-4)[nH]2)N(C(=O)[C@H](NC(=O)OC)c2ccccc2)C1 ?
2970 ng·h/mL

* * *

- ASSAY_EXPLANATION: Pharmacokinetics of Compound I after single and multiple oral doses of solid dispersion tablets
- Type: in vivo, human
- EXPERIMENTAL_CONDITIONS: human, in vivo, 50 mg, Cmax
QUANTITY_MEASURED: Cmax
Hi, when you answer, please include the unit after the number. Thanks!

Fill in: Cmax of COC[C@H]1C[C@@H](c2ncc(-c3ccc4c(c3)COc3cc5c(ccc6nc([C@@H]7CC[C@H](C)N7C(=O)[C@@H](NC(=O)OC)C(C)C)[nH]c65)cc3-4)[nH]2)N(C(=O)[C@H](NC(=O)OC)c2ccccc2)C1 is ___
371 ng/mL
